Give protein stability index for every item shown.
B1: DYRK1B (parent)
chain: YQGPGTRRLQEVLGVQTGGPGGRR

Variants of: B1
Experiment Notes: protein stability index of a GFP-peptide fusion (GPS, HEK-293T) (PSI 1-6); higher = more stable;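 also: lentivirally expressed fusions sorted by FACS into six bins by GFP to DsRed ratio, PSI derived from sequencing read proportions per bin multiplied by bin number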
Test Context: c terminus: a fixed tail appended
Please give only the number in your answer, with no unit.

For YQGPGTRRLQEVLGVQTGGPGGLR [R23L] the variant record lists protein stability index as 3.12

For YQGPGSRRLQEVLGVQTGGPGGRR [T6S] the variant record lists protein stability index as 2.54

For YQGPGTRRLQEVLGVQTGGPGGYR [R23Y] the variant record lists protein stability index as 2.67

For YQGPGTRRLQEVLGVQTGGPSGRR [G21S] the variant record lists protein stability index as 3.04

For KQGPGTRRLQEVLGVQTGGPGGRR [Y1K] the variant record lists protein stability index as 3.84

For YQGPGTRRLQEVLGVLTGGPGGRR [Q16L] the variant record lists protein stability index as 2.96

For YQGPGTRRLQEVLGVQTTGPGGRR [G18T] the variant record lists protein stability index as 3.51

For YPGPGTRRLQEVLGVQTGGPGGRR [Q2P] the variant record lists protein stability index as 3.44

For YQGPGTRRLQKVLGVQTGGPGGRR [E11K] the variant record lists protein stability index as 2.3

For YQGPGKRRLQEVLGVQTGGPGGRR [T6K] the variant record lists protein stability index as 2.33

For YQGPGRRRLQEVLGVQTGGPGGRR [T6R] the variant record lists protein stability index as 3.51
